Just for reference, patent US7312233B2 is where these values come from.

Catalogue of inhibition at 0.3 µM readings, one per entry.
Target: hVR1 (Homo sapiens)
Construct: expressed in transfected cells; host or cells: T-REx HEK 293 (Invitrogen), pcDNA5/TO vector
Experiment: Calcium uptake assay (Fura2, Flex Station) in HEK 293 cells expressing hVR1
Assay type: cell-based
Conditions: HEK293, 0.3 μM compound, inhibition of agonist-induced calcium influx, read-out: % Inhib. @ 0.3 μM

Some solved entries appear below for comparison.
COMPOUND: Cc1cc(C2CC2C(F)(F)F)ccc1C(=O)Nc1cccc2c1CCCC2 (single isomer, unassigned) [Compound 9]
inhibition at 0.3 µM: 0 to 25%
--
COMPOUND: Cc1cc(C2CC2)ccc1C(=O)Nc1cnc2ccccc2c1 [Compound 5]
inhibition at 0.3 µM: > 75%
--
COMPOUND: Cc1nc2cc(NC(=O)c3ccc(C4CC4C(F)(F)F)cc3C)ccc2s1 (single isomer, unassigned) [Compound 11]
inhibition at 0.3 µM: > 75%

Which inhibition at 0.3 µM is listed for O=C(Nc1cnc2ccccc2c1)c1ccc(C2CC2(Cl)Cl)cc1 (centres unmarked) [Compound 3] ?
50 to 75%

Same again, this time with COc1cccc(NC(=O)c2ccc(C3CC3(Cl)Cl)cc2)c1 (centres unmarked) [Compound 4]
> 75%

Repeat for the following compound: Cc1cc(C2CC2)ccc1C(=O)Nc1ccc(C(C)(C)C)cc1 [Compound 2]
0 to 25%

Try this compound next: Cc1nc2cc(NC(=O)c3ccc(C4CC4)cc3C)ccc2s1 [Compound 7]
> 75%

How about this compound: COc1ccc(NC(=O)c2ccc(C3CC3C(F)(F)F)cc2C)cn1 (single isomer, unassigned) [Compound 10]
25 to 50%

----------
Target: HsVR1 (Homo sapiens)
Construct: expressed in transfected cells; host or cells: Xenopus oocytes injected with HsVR1 RNA
Sequence (Q8NER1 whole entry): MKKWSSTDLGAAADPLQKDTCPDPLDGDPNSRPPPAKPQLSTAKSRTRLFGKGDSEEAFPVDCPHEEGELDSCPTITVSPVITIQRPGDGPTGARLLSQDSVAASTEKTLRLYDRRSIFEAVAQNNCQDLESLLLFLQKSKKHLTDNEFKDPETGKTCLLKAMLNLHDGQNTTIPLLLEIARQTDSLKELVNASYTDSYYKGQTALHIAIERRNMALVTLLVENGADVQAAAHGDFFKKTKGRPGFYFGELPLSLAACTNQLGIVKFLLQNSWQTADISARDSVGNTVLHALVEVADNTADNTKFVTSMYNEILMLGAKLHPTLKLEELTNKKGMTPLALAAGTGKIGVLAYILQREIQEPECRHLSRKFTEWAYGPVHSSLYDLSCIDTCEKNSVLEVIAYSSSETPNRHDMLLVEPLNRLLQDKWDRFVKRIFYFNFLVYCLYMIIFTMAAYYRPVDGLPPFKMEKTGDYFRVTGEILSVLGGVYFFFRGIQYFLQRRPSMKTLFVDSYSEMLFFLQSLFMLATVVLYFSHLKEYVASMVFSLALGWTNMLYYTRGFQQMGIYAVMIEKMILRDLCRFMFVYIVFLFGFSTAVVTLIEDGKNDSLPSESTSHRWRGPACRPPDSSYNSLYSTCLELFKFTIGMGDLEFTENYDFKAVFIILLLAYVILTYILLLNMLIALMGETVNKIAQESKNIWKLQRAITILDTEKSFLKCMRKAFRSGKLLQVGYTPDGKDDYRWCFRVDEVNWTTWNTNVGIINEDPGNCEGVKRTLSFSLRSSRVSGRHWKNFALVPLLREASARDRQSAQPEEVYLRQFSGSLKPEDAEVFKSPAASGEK
Assay: Two-electrode voltage clamp recording (OpusXpress) of capsaicin induced VR1 current in Xenopus oocytes injected with HsVR1 RNA
Assay type: cell-based
Conditions: 250 nM capsaicin induced VR1 current, n=5 oocytes, FIG. 1
QUANTITY: IC50 (nM)
Record the value in nM, omitting the unit from your answer.

Need IC50 of `Cc1nc2cc(NC(=O)c3ccc(C4CC4)cc3C)ccc2s1` , thanks.
178

----------
Biological target: hVR1 (Homo sapiens, UniProt Q8NER1)
Construct: expressed in transfected cells; host or cells: T-REx HEK 293 (Invitrogen), pcDNA5/TO vector
Assay: Calcium uptake assay (Fura2, Flex Station) in HEK 293 cells expressing hVR1
Assay type: cell-based
Conditions: HEK293, 0.3 μM compound, inhibition of agonist-induced calcium influx, read-out: % Inhib. @ 0.3 μM
QUANTITY: inhibition at 0.3 µM

Known results for compounds:
COMPOUND: Cc1nc2cc(NC(=O)c3ccc(C4CC4(Cl)Cl)cc3)ccc2s1 (stereo not shown)
inhibition at 0.3 µM: > 75%
--
COMPOUND: Cc1cc(C2CC2C(F)(F)F)ccc1C(=O)Nc1ccc2sc(CO)nc2c1 (single isomer, unassigned)
inhibition at 0.3 µM: > 75%
--
COMPOUND: COc1cccc(NC(=O)c2ccc(C3CC3)cc2C)c1
inhibition at 0.3 µM: 50 to 75%

Look at this compound and give its reported inhibition at 0.3 µM. COc1cccc(NC(=O)c2ccc(C3CC3C(F)(F)F)cc2C)c1 (single isomer, unassigned)
25 to 50%
